assay.notes: Clearance in mouse at 8 mg/kg, iv
Assay type: ADME, organism-based
condition: in vivo
test.readout: clearance (mL/min/kg)

compound="CC[C@@]1(O)C(=O)OCc2c1cc1n(c2=O)Cc2cc3ccccc3nc2-1 [CAMPTOTHECIN]" display_unit=mL/min/kg value_reported=38

====

assay.notes: Volume of distribution at steady state in mouse at 8 mg/kg, iv
Type: ADME, organism-based
condition: in vivo, read-out: Vdss
test.readout: Vd (L/kg)

compound_structure_string=CC[C@@]1(O)C(=O)OCc2c1cc1n(c2=O)Cc2cc3ccccc3nc2-1 test_readout=Vd display_unit=L/kg value_reported=10.8

====

Test system: HepG2
assay.notes: Cytotoxicity against human HepG2 cells assessed as cell growth inhibition measured after 48 hrs by MTT assay
Format: functional, cell-based
condition: HepG2, 48 h
test.readout: IC50 (nM)

compound_structure_string=CC[C@@]1(O)C(=O)OCc2c1cc1n(c2=O)Cc2cc3ccccc3nc2-1 target_entity=HepG2 value_reported=7.25

====

assay.notes: Drug recovery in bile duct cannulated rat urine measured for 48 hrs
test.readout: dose excreted at 48 h (%)

compound_structure_string=CCCNC(=O)Nc1cccc(S(=O)(=O)Nc2cccc([C@@H](CC(=O)[O-])NC(=O)Nc3ccc(NC(=O)NCCOCCOCCOCCC(=O)N[C@@H](CC(=O)[O-])C(=O)N4CCC[C@H]4C(=O)N[C@H](C(=O)O[C@]4(CC)C(=O)OCc5c4cc4n(c5=O)Cc5c-4nc4ccccc4c5CC)C(C)C)cc3)c2)c1.[Na+].[Na+] test_readout="dose excreted at 48 h" display_unit=% value_reported=2.4

====

assay.notes: Primary half life in mouse at 8 mg/kg, iv
Format: ADME, organism-based
condition: in vivo, read-out: alphat1/2
test.readout: half-life

compound="CC[C@@]1(O)C(=O)OCc2c1cc1n(c2=O)Cc2cc3ccccc3nc2-1 [CAMPTOTHECIN]" value_reported="21 min"

====

assay.notes: Drug recovery in bile duct cannulated rat bile measured for 48 hrs
test.readout: dose excreted at 48 h

compound_structure_string=CCCNC(=O)Nc1cccc(S(=O)(=O)Nc2cccc([C@@H](CC(=O)[O-])NC(=O)Nc3ccc(NC(=O)NCCOCCOCCOCCC(=O)N[C@@H](CC(=O)[O-])C(=O)N4CCC[C@H]4C(=O)N[C@H](C(=O)O[C@]4(CC)C(=O)OCc5c4cc4n(c5=O)Cc5c-4nc4ccccc4c5CC)C(C)C)cc3)c2)c1.[Na+].[Na+] test_readout="dose excreted at 48 h" value_reported=108%

====

System: A549
assay.notes: Antiproliferative activity against human A549 cells assessed as reduction in cell viability measured after 72 hrs by MTT assay
Format: functional, cell-based
condition: A549, 72 h
pEC50: −log10 of the molar value.
Reported pEC50 values follow for various compounds
test.readout: pEC50

compound_structure_string=CC[C@@]1(O)C(=O)OCc2c1cc1n(c2=O)Cc2cc3cc4c(cc3nc2-1)OCO4 test_readout=pEC50 value_reported=9.07
compound_structure_string=CC[C@@]1(O)C(=O)OCc2c1cc1n(c2=O)Cc2cc3ccccc3nc2-1 test_readout=pEC50 value_reported=8.38

====

assay.notes: Toxicity in ip dosed mouse assessed as lethal dose
Type: organism-based
condition: in vivo
test.readout: LD50 (mg/kg)

compound_structure_string=CC[C@@]1(O)C(=O)OCc2c1cc1n(c2=O)Cc2cc3ccccc3nc2-1 display_unit=mg/kg value_reported=38

====

assay.notes: Ratio AUC in mouse tumor to plasma
Format: ADME, cell-free
condition: tumor and plasma, read-out: Ratio AUC
test.readout: Kp

compound_structure_string=CC[C@@]1(O)C(=O)OCc2c1cc1n(c2=O)Cc2cc3ccc(O)cc3nc2-1 value_reported=6.1

====

assay.notes: Aqueous solubility of compound at pH 7.4
Format: physicochemical
test.readout: solubility (µM)

compound_structure_string=CC[C@@]1(O)C(=O)OCc2c1cc1n(c2=O)Cc2cc3ccccc3nc2-1 test_readout=solubility display_unit=µM value_reported=1.83
